# Target or test system: CatSper (Homo sapiens, UniProt Q7RTX7+Q86XQ3+Q8NEC5+Q96P56)
# Construct: Motile spermatozoa were selected by a ‘swim-up’ procedure; endogenous in cells; host or cells: motile human spermatozoa (swim-up) from healthy donors
# Method: Inhibition of P4-induced Ca2+ influx in human sperm (screen 2 inhibitors)
# Format: cell-based
# Protocol conditions: Mean IC50 (P4) µM (±SD), P4-induced response; pooled from 3 independent experiments
The threshold is 0.6 µM. Values of IC50 beneath it are tagged y; values meeting or exceeding it are tagged n.

# Molecule, Qualitative label
data = [
    ("CC(=O)[C@H]1CC[C@H]2[C@@H]3C=CC4=CC(=O)CC[C@@]4(C)[C@@H]3CC[C@]12C", "y"),
    ("C[C@]12CC[C@H](O)C[C@@H]1CC[C@@H]1[C@@H]2CC[C@]2(C)C(=O)CC[C@@H]12 [Epiandrosterone]", "n"),
    ("CC12CCC(O)CC1CCC1C2CCC2(C)C1CCC2(C)O (stereo not shown)", "n"),
    ("CC12CCC(O)CC1=CCC1C2CCC2(C)C(C(=O)O)CCC12 (stereo not shown)", "y"),
    ("C[C@]12Cc3c[nH]nc3C[C@@H]1CC[C@@H]1[C@@H]2CC[C@@]2(C)[C@H]1CC[C@]2(C)O", "y"),
    ("C[C@]12CC[C@H]3[C@@H](CCC4=CC(=O)CC[C@@]43C)[C@@H]1CC[C@@H]2O", "n"),
]

Data request: Could you please tell me whether IC50 recorded for C[C@]12C/C(=C/O)C(=O)C[C@@H]1CC[C@@H]1[C@@H]2CC[C@@]2(C)[C@H]1CC[C@]2(C)O is less than 0.6 µM?
Data returned: n

Data request: Is IC50 of C#C[C@]1(O)CC[C@H]2[C@@H]3CCC4=CC(=O)CCC4=C3C=C[C@@]21CC strictly below 0.6 µM?
Data returned: n

Data request: Is the reported IC50 for CC(=O)O[C@H]1CC[C@@]2(C)C(=CC[C@@H]3[C@@H]2CC[C@]2(C)C(=O)CC[C@@H]32)C1 [Dehydroisoandosterone 3-acetate (DHEA), Dehydroisoandosterone 3-acetate] strictly below 0.6 µM?
Data returned: n

Data request: # check: IC50 < 0.6 µM for C[C@]12CC[C@@H]3c4ccc(O)cc4CC[C@H]3[C@@H]1CCC2=O
Data returned: y

====

# Target or test system: CatSper (Homo sapiens, UniProt Q7RTX7+Q86XQ3+Q8NEC5+Q96P56)
# Construct: Motile spermatozoa were selected by a ‘swim-up’ procedure; endogenous in cells; host or cells: motile human spermatozoa (swim-up) from healthy donors
# Method: Inhibition of PGE1-induced Ca2+ influx in human sperm (screen 2 inhibitors)
# Assay type: cell-based
# pIC50 values compiled below
The read-out pIC50 is expressed as -log10 of concentration in moles per litre.

# Compound, Target or test system, pIC50
rows = [
    ("CC(=O)[C@H]1CC[C@H]2[C@@H]3CC=C4C[C@@H](O)CC[C@]4(C)[C@H]3CC[C@]12C", "CatSper (Homo sapiens, UniProt Q7RTX7+Q86XQ3+Q8NEC5+Q96P56)", 7.96),
    ("C[C@]12CC[C@@H](O)C[C@@H]1CC[C@@H]1[C@@H]2CC[C@]2(C)C(=O)CC[C@@H]12", "CatSper (Homo sapiens, UniProt Q7RTX7+Q86XQ3+Q8NEC5+Q96P56)", 5.27),
    ("CC(=O)[C@H]1CC[C@H]2[C@@H]3C=CC4=CC(=O)CC[C@@]4(C)[C@@H]3CC[C@]12C", "CatSper (Homo sapiens, UniProt Q7RTX7+Q86XQ3+Q8NEC5+Q96P56)", 4.35),
    ("C[C@]12C/C(=C/O)C(=O)C[C@@H]1CC[C@@H]1[C@@H]2CC[C@@]2(C)[C@H]1CC[C@]2(C)O", "CatSper (Homo sapiens, UniProt Q7RTX7+Q86XQ3+Q8NEC5+Q96P56)", 4.93),
    ("C[C@]12Cc3c[nH]nc3C[C@@H]1CC[C@@H]1[C@@H]2CC[C@@]2(C)[C@H]1CC[C@]2(C)O", "CatSper (Homo sapiens, UniProt Q7RTX7+Q86XQ3+Q8NEC5+Q96P56)", 6.93),
]

// next entry
Data request: pIC50 for CC(=O)O[C@H]1CC[C@@]2(C)C(=CC[C@@H]3[C@@H]2CC[C@]2(C)C(=O)CC[C@@H]32)C1 [Dehydroisoandosterone 3-acetate (DHEA), Dehydroisoandosterone 3-acetate] ?
Data returned: 5.43
